# system-under-test: Serine/threonine-protein kinase/endoribonuclease IRE1 (Homo sapiens, UniProt O75460)
# Sequence (O75460 whole entry, the tested form may be a part): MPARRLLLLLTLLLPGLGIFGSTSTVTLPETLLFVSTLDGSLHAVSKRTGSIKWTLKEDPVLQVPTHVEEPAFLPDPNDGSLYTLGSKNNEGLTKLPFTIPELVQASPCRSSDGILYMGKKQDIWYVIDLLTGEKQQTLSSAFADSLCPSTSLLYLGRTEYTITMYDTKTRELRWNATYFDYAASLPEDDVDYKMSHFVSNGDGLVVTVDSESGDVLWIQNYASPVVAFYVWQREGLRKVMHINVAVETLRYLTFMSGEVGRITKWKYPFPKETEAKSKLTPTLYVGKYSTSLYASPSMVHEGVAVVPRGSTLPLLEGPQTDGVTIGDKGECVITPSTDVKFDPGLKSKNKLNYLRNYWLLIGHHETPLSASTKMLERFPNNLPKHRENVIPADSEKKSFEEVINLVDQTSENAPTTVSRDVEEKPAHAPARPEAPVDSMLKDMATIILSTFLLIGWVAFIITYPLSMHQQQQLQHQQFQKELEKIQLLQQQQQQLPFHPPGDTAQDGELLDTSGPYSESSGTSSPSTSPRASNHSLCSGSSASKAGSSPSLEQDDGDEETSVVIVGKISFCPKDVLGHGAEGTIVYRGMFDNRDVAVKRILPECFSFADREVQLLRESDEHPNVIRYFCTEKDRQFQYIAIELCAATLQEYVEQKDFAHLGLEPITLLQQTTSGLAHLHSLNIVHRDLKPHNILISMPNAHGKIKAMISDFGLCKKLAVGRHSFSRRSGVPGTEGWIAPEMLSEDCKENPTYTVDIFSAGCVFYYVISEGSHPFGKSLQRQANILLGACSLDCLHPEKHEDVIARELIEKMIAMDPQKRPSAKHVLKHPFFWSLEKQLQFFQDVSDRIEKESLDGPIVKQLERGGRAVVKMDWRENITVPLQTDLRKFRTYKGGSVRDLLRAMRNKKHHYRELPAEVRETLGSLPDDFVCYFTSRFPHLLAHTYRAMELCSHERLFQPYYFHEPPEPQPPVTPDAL
# assay-summary: Inhibition of His-tagged IRE1alpha (G547 to L977 residues) (unknown origin) expressed in Sf9 cells preincubated with anti-His Europium labeled antibody for 1 hr prior to compound addition followed by tracer 236 addition and measured after 1 hr by TR-FRET assay
// values below are reported IC50

- molecule: "Cc1ccc2c(NS(=O)(=O)c3ccccc3Cl)cccc2c1Oc1ncccc1-c1ccnc(N[C@H]2CCCN(CC(F)(F)F)C2)n1"
  result-comparator: ">"
  IC50 (nM): 1000
- molecule: "Cc1cc(NS(=O)(=O)Cc2ccccc2)ccc1Oc1ncccc1-c1ccnc(N[C@H]2CCCNC2)n1"
  result-comparator: "="
  IC50 (nM): 29
- molecule: "Cc1cc(Oc2ncccc2-c2ccnc(N[C@H]3CCCNC3)n2)c(F)c(F)c1NS(=O)(=O)Cc1ccccc1"
  result-comparator: "="
  IC50 (nM): 0.29
- molecule: "Cc1ccc2c(NS(=O)(=O)CC3CCCCC3)cccc2c1Oc1ncccc1-c1ccnc(N[C@H]2CCCNC2)n1"
  result-comparator: "="
  IC50 (nM): 2.1
